# inhibition per entry
Molecular target: Prostaglandin G/H synthase 1 (Mus musculus)
Sequence (whole entry): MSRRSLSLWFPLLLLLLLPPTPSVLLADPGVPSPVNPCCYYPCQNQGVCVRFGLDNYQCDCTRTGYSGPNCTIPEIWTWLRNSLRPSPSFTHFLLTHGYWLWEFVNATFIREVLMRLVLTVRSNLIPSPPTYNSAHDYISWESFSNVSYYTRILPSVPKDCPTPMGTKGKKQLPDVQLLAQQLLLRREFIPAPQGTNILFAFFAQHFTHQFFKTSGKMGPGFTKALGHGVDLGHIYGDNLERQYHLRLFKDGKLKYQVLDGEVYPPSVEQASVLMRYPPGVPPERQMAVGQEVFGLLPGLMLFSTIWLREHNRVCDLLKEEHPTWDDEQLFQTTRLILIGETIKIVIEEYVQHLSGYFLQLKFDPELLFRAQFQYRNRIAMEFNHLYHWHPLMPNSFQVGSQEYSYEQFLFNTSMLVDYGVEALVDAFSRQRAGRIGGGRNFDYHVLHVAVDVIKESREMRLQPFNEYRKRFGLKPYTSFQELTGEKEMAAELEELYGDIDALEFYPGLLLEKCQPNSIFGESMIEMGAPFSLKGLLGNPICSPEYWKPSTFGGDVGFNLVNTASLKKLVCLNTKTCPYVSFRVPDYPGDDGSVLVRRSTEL
Experiment: In vitro percentage inhibition against prostaglandin G/H synthase 1 using freshly harvested mouse peritoneal macrophages at 10 ug/mL concentration

| compound-structure-string | assay-result |
| --- | --- |
| CS(=O)(=O)c1ccc(-c2oc3ccc(F)cc3c(=O)c2-c2cccnc2)cc1 | 12% |
| CS(=O)(=O)c1ccc(-c2oc3ccccc3c(=S)c2-c2ccc(Cl)c(Cl)c2)cc1 | < 5% |
| CS(=O)(=O)c1ccc(-c2oc3ccccc3c(=O)c2-c2ccncc2)cc1 | < 5% |
| CS(=O)(=O)c1ccc(-c2oc3ccccc3c(=S)c2-c2ccccc2)cc1 | < 5% |

Measured inhibition for this entry `Cc1ccccc1-c1c(-c2ccc(S(C)(=O)=O)cc2)oc2ccccc2c1=O` on Prostaglandin G/H synthase 1 (Mus musculus): < 5%

Measured inhibition for this entry `CS(=O)(=O)c1ccc(-c2oc3ccccc3c(=O)c2-c2ccc(Cl)cc2)cc1` on Prostaglandin G/H synthase 1 (Mus musculus): < 5%

Measured inhibition for this entry `CS(=O)(=O)c1ccc(-c2oc3ccccc3c(=O)c2-c2ccccn2)cc1` on Prostaglandin G/H synthase 1 (Mus musculus): 17%

Measured inhibition for this entry `CS(=O)(=O)c1ccc(-c2oc3ccccc3c(=O)c2-c2ccc(Cl)cc2Cl)cc1` on Prostaglandin G/H synthase 1 (Mus musculus): < 5%

Measured inhibition for this entry `COc1ccc(-c2c(-c3ccc(S(C)(=O)=O)cc3)oc3ccccc3c2=S)cc1` on Prostaglandin G/H synthase 1 (Mus musculus): < 5%

Measured inhibition for this entry `COc1ccc(-c2c(-c3ccc(S(C)(=O)=O)cc3)oc3ccccc3c2=O)cc1` on Prostaglandin G/H synthase 1 (Mus musculus): < 5%

Measured inhibition for this entry `CS(=O)(=O)c1ccc(-c2oc3ccccc3c(=O)c2-c2cccc(F)c2)cc1` on Prostaglandin G/H synthase 1 (Mus musculus): < 5%

Measured inhibition for this entry `COc1ccc(-c2c(-c3ccc(S(C)(=O)=O)cc3)oc3ccccc3c2=O)cn1` on Prostaglandin G/H synthase 1 (Mus musculus): 18%

Measured inhibition for this entry `CS(=O)(=O)c1ccc(-c2oc3ccccc3c(=S)c2-c2ccc(F)cc2)cc1` on Prostaglandin G/H synthase 1 (Mus musculus): < 5%

Measured inhibition for this entry `Cn1cc(-c2c(-c3ccc(S(C)(=O)=O)cc3)oc3ccccc3c2=O)cn1` on Prostaglandin G/H synthase 1 (Mus musculus): < 5%

Measured inhibition for this entry `CS(=O)(=O)c1ccc(-c2oc3ccccc3c(=O)c2-c2ccc(Cl)c(Cl)c2)cc1` on Prostaglandin G/H synthase 1 (Mus musculus): < 5%

Measured inhibition for this entry `NS(=O)(=O)c1ccc(-c2oc3ccccc3c(=O)c2-c2ccccc2F)cc1` on Prostaglandin G/H synthase 1 (Mus musculus): 60%

Measured inhibition for this entry `CS(=O)(=O)c1ccc(-c2oc3ccccc3c(=S)c2-c2ccccc2F)cc1` on Prostaglandin G/H synthase 1 (Mus musculus): < 5%

Measured inhibition for this entry `CS(=O)(=O)c1ccc(-c2oc3ccccc3c(=O)c2-c2ccc(F)cc2)cc1` on Prostaglandin G/H synthase 1 (Mus musculus): < 5%

Measured inhibition for this entry `COc1ccc(-c2c(-c3ccc(S(N)(=O)=O)cc3)oc3ccccc3c2=O)cc1` on Prostaglandin G/H synthase 1 (Mus musculus): 84%
